PROTOCOL NOTES: Storage stability at 40° C. dissolved in medium chain fatty acid triglyceride (MCT), content by HPLC
Format: physicochemical
CONDITION: in MCT (compound 2 0.12 mg/g), stored at 40° C., 28 days
PARAMETER MEASURED: content of compound, 28 days (%)
The answer is to be given in %; state only the numeric part.

The value of content of compound, 28 days measured for the compound CC[C@H](C)CC(F)(F)C1(O)CC[C@@H]2C(CCCCCCC(=O)O)C(=O)C[C@H]2O1 (stereo partly shown) turned out to be 98.9

###

PROTOCOL NOTES: Storage stability at 40° C. dissolved in medium chain fatty acid triglyceride (MCT), content by HPLC
Format: physicochemical
CONDITION: in MCT (compound 1 0.36 mg/g; compound 2 0.12 mg/g), 40° C., initial
Overview of recorded content of compound, initial for various compounds
Quick note: give the figure in %, leave out the unit.

1. CC[C@H](C)CC(F)(F)C1(O)CC[C@@H]2C(CCCCCCC(=O)O)C(=O)C[C@H]2O1 (some centres unmarked)
100

// moving on: another record for content of compound, initial
Data point: CCCCC(F)(F)C1(O)CC[C@@H]2C(CCCCCCC(=O)O)C(=O)C[C@H]2O1 (some centres unmarked) ; content of compound, initial = 100
